Reported self-cleavage values for a set of variants
B1: LINE1-full (parent)
chain: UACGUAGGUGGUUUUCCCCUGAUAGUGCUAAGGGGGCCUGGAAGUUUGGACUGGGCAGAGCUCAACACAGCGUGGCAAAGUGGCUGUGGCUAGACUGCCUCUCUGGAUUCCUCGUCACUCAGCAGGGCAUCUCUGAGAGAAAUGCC

Variants of: B1
experiment: self-cleavage, relative activity (ratio to wild type); higher = more cleavage; in vitro, sequencing; the parent is a self-cleaving ribozyme
Reply: number alone, nothing else.

sequence.content	self-cleavage
UACGUAGGUGGUUUUCCCCUGAUAGUGCUAAGGGGGCCUGGAAGUUUGGACUGGGCAGAGCUCAACACAGCGCGGCAAAGUGGCUGUGGCUAGACUGCCUCUCUGGAUUCCUCGUCACUCAGCAGGGCAUCUCUGAGAGAAAUGCA [U73C C146A]	2.24
UACGUAGGUGGUUUUCCCCUGAUAGUGCUAAGGGGGCCUGGAAGUUUGGACCGGGCAGAGCUCAACACAGCGUGGCAAAGUGGCUGUGGCUAGACUGCCUCUCUGGAUUCCUCGUCACUCAGCAGGGCAUCUCUGAGAGAGAUGCC [U52C A141G]	1.25

Query block: Please list self-cleavage recorded for the variant UACGUAGGUGGUUUUCCCCUGAUAGUGCUAAGGGGGCCUGGAAGUUUGGACUGGGCAGAGCUCAACACAGCGCGGCAAAGUGGCUUUGGCUAGACUGCCUCUCUGGAUUCCUCGUCACUCAGCAGGGCAUCUCUGAGAGAAAUGCC [U73C G86U]
Result block: 0.03
